IC50 listing for selected compounds.
# test-target: Sodium-dependent dopamine transporter (Rattus norvegicus)
# measurement-description: Tested for radioligand [3H]BTCP displacement from dopamine transporter in rat forebrain
Give the number; nM is assumed, so skip it.

Worked cases, answers included:
- item-smiles: "NCCNC1(c2cc3ccccc3s2)CCCCC1"
  IC50 (nM): 30
- item-smiles: "CCCN(CC)C1(c2cc3ccccc3s2)CCCCC1"
  IC50 (nM): 20
- item-smiles: "CNCCCCNC1(c2cc3ccccc3s2)CCCCC1"
  IC50 (nM): 50
- item-smiles: "c1ccc(CNC2(c3cc4ccccc4s3)CCCCC2)cc1"
  IC50 (nM): 143
- item-smiles: "CCNC1(c2cc3ccccc3s2)CCCCC1"
  IC50 (nM): 22
- item-smiles: "CCCCN(C)C1(c2cc3ccccc3s2)CCCCC1"
  IC50 (nM): 21
- item-smiles: "CNCCNC1(c2cc3ccccc3s2)CCCCC1"
  IC50 (nM): 17
- item-smiles: "CCCCCNC1(c2cc3ccccc3s2)CCCCC1"
  IC50 (nM): 24
- item-smiles: "CCCNC1(c2cc3ccccc3s2)CCCCC1"
  IC50 (nM): 4
- item-smiles: "O=C(Cc1ccc(Cl)c(Cl)c1)NCCNC1(c2cc3ccccc3s2)CCCCC1"
  IC50 (nM): 579

Would you kindly share the measured IC50 for CCCCNC1(c2cc3ccccc3s2)CCCCC1 ?
0.3

Would you kindly share the measured IC50 for NCC(=O)NC1(c2cc3ccccc3s2)CCCCC1 ?
114

Would you kindly share the measured IC50 for Clc1ccc(CCNCCNC2(c3cc4ccccc4s3)CCCCC2)cc1Cl ?
211

====

# test-target: Sodium-dependent dopamine transporter (Rattus norvegicus)
# measurement-description: Tested for inhibition of radioligand [3H]dopamine (DA) uptake in rat synaptosomes
# Assay type: subcellular, Brain
IC50 listing for selected molecules.
Give the number; nM is assumed, so skip it.

- item-smiles: "CNCCCCNC1(c2cc3ccccc3s2)CCCCC1"
  IC50 (nM): 33
- item-smiles: "CCCCN(CCCC)C1(c2cc3ccccc3s2)CCCCC1"
  IC50 (nM): 1360
- item-smiles: "O=C1NCCN1C1(c2cc3ccccc3s2)CCCCC1"
  IC50 (nM): 2120
- item-smiles: "CCNC1(c2cc3ccccc3s2)CCCCC1"
  IC50 (nM): 22

Would you kindly share the measured IC50 for CCCNC1(c2cc3ccccc3s2)CCCCC1 ?
5

Would you kindly share the measured IC50 for CNC1(c2cc3ccccc3s2)CCCCC1 ?
57

====

# test-target: Sodium-dependent dopamine transporter (Rattus norvegicus)
# measurement-description: Tested for radioligand [3H]cocaine displacement from dopamine transporter in rat forebrain
quantity-name: pIC50
# log scale: pIC50 equals minus log10 of the concentration in mol/L

Worked cases, answers included:
- item-smiles: "NCC(=O)NC1(c2cc3ccccc3s2)CCCCC1"
  reading: 6.08
- item-smiles: "CNC1(c2cc3ccccc3s2)CCCCC1"
  reading: 6.57
- item-smiles: "CCCCN(C)C1(c2cc3ccccc3s2)CCCCC1"
  reading: 6.79
- item-smiles: "CCCN(CC)C1(c2cc3ccccc3s2)CCCCC1"
  reading: 6.68
- item-smiles: "O=C(Cc1ccc(Cl)c(Cl)c1)NCCNC1(c2cc3ccccc3s2)CCCCC1"
  reading: 5.83

Recorded pIC50 for CCCN(CCC)C1(c2cc3ccccc3s2)CCCCC1 with Sodium-dependent dopamine transporter (Rattus norvegicus), please?
6.66

Recorded pIC50 for CN(C)C1(c2cc3ccccc3s2)CCCCC1 with Sodium-dependent dopamine transporter (Rattus norvegicus), please?
7.08

Recorded pIC50 for CNCCCNC1(c2cc3ccccc3s2)CCCCC1 with Sodium-dependent dopamine transporter (Rattus norvegicus), please?
6.13

Recorded pIC50 for CC(C)=CCNC1(c2cc3ccccc3s2)CCCCC1 with Sodium-dependent dopamine transporter (Rattus norvegicus), please?
7.30

Recorded pIC50 for c1ccc2sc(C3(NCC4CCC4)CCCCC3)cc2c1 with Sodium-dependent dopamine transporter (Rattus norvegicus), please?
7.43

Recorded pIC50 for c1ccc2sc(C3(N4CCCCC4)CCCCC3)cc2c1 with Sodium-dependent dopamine transporter (Rattus norvegicus), please?
7.41

====

# test-target: Sodium-dependent dopamine transporter (Rattus norvegicus, UniProt P23977)
# Sequence (P23977 whole entry): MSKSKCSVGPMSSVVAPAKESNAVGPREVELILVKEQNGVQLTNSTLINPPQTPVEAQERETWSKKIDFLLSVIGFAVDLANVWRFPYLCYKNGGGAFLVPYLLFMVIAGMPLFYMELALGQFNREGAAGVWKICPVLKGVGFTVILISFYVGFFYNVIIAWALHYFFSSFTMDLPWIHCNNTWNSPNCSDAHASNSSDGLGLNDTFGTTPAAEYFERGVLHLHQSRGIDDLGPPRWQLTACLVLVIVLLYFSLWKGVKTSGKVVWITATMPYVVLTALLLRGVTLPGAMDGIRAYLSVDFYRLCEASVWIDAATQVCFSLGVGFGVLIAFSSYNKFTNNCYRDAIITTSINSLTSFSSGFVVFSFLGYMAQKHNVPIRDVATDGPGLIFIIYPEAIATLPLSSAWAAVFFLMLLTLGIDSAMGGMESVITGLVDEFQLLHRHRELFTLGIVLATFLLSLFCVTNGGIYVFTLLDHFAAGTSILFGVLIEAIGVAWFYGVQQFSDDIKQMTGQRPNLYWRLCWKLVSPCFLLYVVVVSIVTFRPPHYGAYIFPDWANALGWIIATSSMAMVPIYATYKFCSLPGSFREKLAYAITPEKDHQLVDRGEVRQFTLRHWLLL
# measurement-description: Tested for radioligand [3H]BTCP displacement from dopamine transporter in rat forebrain
pIC50: −log10 of the molar value.
# pIC50 >= 8 gives t, anything below gives f

Recorded results for 3 molecules are shown here.
- item-smiles: "Clc1ccc(CCNC2(c3cc4ccccc4s3)CCCCC2)cc1Cl"
  discrete-label: "f"
- item-smiles: "CNC1(c2cc3ccccc3s2)CCCCC1"
  discrete-label: "f"
- item-smiles: "CCCCN(CCCC)C1(c2cc3ccccc3s2)CCCCC1"
  discrete-label: "f"

Please check the record c1ccc2sc(C3(NCC4CC4)CCCCC3)cc2c1 and state if its pIC50 is at or above 8.
t

Please check the record CCCN(CCC)C1(c2cc3ccccc3s2)CCCCC1 and state if its pIC50 is at or above 8.
f

Please check the record c1ccc2sc(C3(NCC4CCC4)CCCCC3)cc2c1 and state if its pIC50 is at or above 8.
t

Please check the record O=C1NCCN1C1(c2cc3ccccc3s2)CCCCC1 and state if its pIC50 is at or above 8.
f

Please check the record CN(C)C1(c2cc3ccccc3s2)CCCCC1 and state if its pIC50 is at or above 8.
f

====

# test-target: Sodium-dependent dopamine transporter (Rattus norvegicus, UniProt P23977)
# measurement-description: Tested for inhibition of radioligand [3H]dopamine (DA) uptake in rat synaptosomes
# Assay type: subcellular, Brain
quantity-name: pIC50
# log scale: pIC50 equals minus log10 of the concentration in mol/L

- item-smiles: "c1ccc2sc(C3(N4CCCCC4)CCCCC3)cc2c1"
  pIC50: 7.96
- item-smiles: "CCCN(CCC)C1(c2cc3ccccc3s2)CCCCC1"
  pIC50: 7.09
- item-smiles: "CNCCNC1(c2cc3ccccc3s2)CCCCC1"
  pIC50: 7.54
- item-smiles: "CN(C)C1(c2cc3ccccc3s2)CCCCC1"
  pIC50: 7.29
- item-smiles: "O=C(Cc1ccc(Cl)c(Cl)c1)NCCNC1(c2cc3ccccc3s2)CCCCC1"
  pIC50: 6.02

Would you kindly share the measured pIC50 for CCCN(CC)C1(c2cc3ccccc3s2)CCCCC1 ?
7.77

Would you kindly share the measured pIC50 for Clc1ccc(CCNCCNC2(c3cc4ccccc4s3)CCCCC2)cc1Cl ?
6.76

Would you kindly share the measured pIC50 for CCCCNC1(c2cc3ccccc3s2)CCCCC1 ?
8.15

Would you kindly share the measured pIC50 for c1ccc(CNC2(c3cc4ccccc4s3)CCCCC2)cc1 ?
6.71

Would you kindly share the measured pIC50 for CC(C)=CCNC1(c2cc3ccccc3s2)CCCCC1 ?
7.85

Would you kindly share the measured pIC50 for c1ccc2sc(C3(NCC4CCC4)CCCCC3)cc2c1 ?
8.15

Would you kindly share the measured pIC50 for CCN(CC)C1(c2cc3ccccc3s2)CCCCC1 ?
7.92

====

# test-target: Sodium-dependent dopamine transporter (Rattus norvegicus)
# measurement-description: Tested for inhibition of radioligand [3H]dopamine (DA) uptake in rat synaptosomes
# Assay type: subcellular, Brain
quantity-name: IC50 (nM)
Give the number; nM is assumed, so skip it.

- item-smiles: "NCCNC1(c2cc3ccccc3s2)CCCCC1"
  quantity-name: "IC50"
  reading: 88

Would you kindly share the measured IC50 for CCCCCNC1(c2cc3ccccc3s2)CCCCC1 ?
34

====

# test-target: UniProtKB P23977
# measurement-description: Tested for radioligand [3H]cocaine displacement from dopamine transporter in rat forebrain
quantity-name: IC50 (nM)
Give the number; nM is assumed, so skip it.

Worked cases, answers included:
- item-smiles: "CCCNC1(c2cc3ccccc3s2)CCCCC1"
  test-target: "UniProtKB P23977"
  uom: "nM"
  reading: 57
- item-smiles: "CCN(CC)C1(c2cc3ccccc3s2)CCCCC1"
  test-target: "UniProtKB P23977"
  uom: "nM"
  reading: 42
- item-smiles: "CNCCCCNC1(c2cc3ccccc3s2)CCCCC1"
  test-target: "UniProtKB P23977"
  uom: "nM"
  reading: 328
- item-smiles: "c1ccc2sc(C3(NCC4CC4)CCCCC3)cc2c1"
  test-target: "UniProtKB P23977"
  uom: "nM"
  reading: 23
- item-smiles: "CCCCCNC1(c2cc3ccccc3s2)CCCCC1"
  test-target: "UniProtKB P23977"
  uom: "nM"
  reading: 337
- item-smiles: "CCNC1(c2cc3ccccc3s2)CCCCC1"
  test-target: "UniProtKB P23977"
  uom: "nM"
  reading: 165

Would you kindly share the measured IC50 for Clc1ccc(CCNCCNC2(c3cc4ccccc4s3)CCCCC2)cc1Cl ?
713

Would you kindly share the measured IC50 for CCCCN(CCCC)C1(c2cc3ccccc3s2)CCCCC1 ?
386

Would you kindly share the measured IC50 for CCCCNC1(c2cc3ccccc3s2)CCCCC1 ?
60

Source listed as ChEMBL document CHEMBL1126559.
